Hello, the source for this data is ChEMBL document CHEMBL4004809, in case you need it.

Test system: Porphyromonas gingivalis
Assay: Bactericidal activity against Porphyromonas gingivalis ATCC 33277 after 24 hrs
Type: functional
Conditions: ATCC 33277, 24 h
Hi there, I'd appreciate the recorded MBC for every entry that follows.
Give the number; µM is assumed, so skip it.

Query: Using Porphyromonas gingivalis as the test system, report measured MBC of CC1(C)S[C@@H]2[C@H](NC(=O)Cc3ccccc3)C(=O)N2[C@H]1C(=O)O .
Response: 2.3

Query: Using Porphyromonas gingivalis as the test system, report measured MBC of CCC/C=C1\OC(=O)c2c(Oc3c(O)cc(O)cc3CCCCC)cc(OC)cc21 .
Response: 20

Query: Using Porphyromonas gingivalis as the test system, report measured MBC of CCCCCc1cc(O)cc(O)c1Oc1cc(OC)cc2c1C(=O)OC2(CCCC)OC (stereo not drawn) .
Response: 80

Query: Using Porphyromonas gingivalis as the test system, report measured MBC of CCCCCc1c(Oc2cc(OC)cc(C(=O)CCCC)c2C(=O)OC)c(O)cc(O)c1C(=O)O .
Response: 40

Query: Using Porphyromonas gingivalis as the test system, report measured MBC of CCCCCc1cc(O)cc(O)c1Oc1cc(OC)cc(C(=O)CCCC)c1C(=O)OC .
Response: 80

Query: Using Porphyromonas gingivalis as the test system, report measured MBC of CCCCCc1c(Oc2cc(OC)cc3c2C(=O)OC3(CCCC)OC)c(O)cc(O)c1C(=O)O (stereo not drawn) .
Response: 80

Query: Using Porphyromonas gingivalis as the test system, report measured MBC of CCCCCc1c2c(cc(O)c1C(=O)O)OC(=O)c1c(cc(OC)cc1C(=O)CCCC)O2 .
Response: 80
